STUDY_SYSTEM: Bat-WIV1 RBD (Bat SARS-like coronavirus WIV1, UniProt U5WI05)
ASSAY_TEXT: BLI
EXPERIMENTAL_ENDPOINT: binding result

C807 (antibody, V domains shown) VH: QVQLVQSGAEAKKPGSSVKVSCKASGGTFKSYIINWVRQAPGQGLEWMGEIIPIFGTANYAQKFQGRVTSTADESTSTAYMELSSLKSEDTAVYYCARGRGYSGYGASYYFDYWGQGTLVTVSS VL: QSVLTQPPSVSGAPGQRVTISCTGSNSNIGAGYDVHWYQQLPGTAPKLLIYANSNRPSGVPDRFSGSKSGTSASLAITGLQAEDEADYYCQSYDSGLSGSVFGGGTKLTVL = binds
BD56-597 (antibody, V domains shown) VH: QVQLVQSGAEVKKPGSSVKVSCKASGGTFSTYPISWVRQAPGQGVEWMGAIIPILGTTDYAQIFQGRVTITADKSTSTAYMELSSLRPEDTAVYYCARERGYSGYGAAYYFDSWGQGTLVTVSS VL: QSVLTQPPSVSGAPGQRVTISCTGSDSNIGAGYDVHWYQQLPGTAPKLLIYVNINRPSGVPDRFSGSKSATSASLAITGLQAEDEADYYCQSYDSSLSGVVFGGGTKLTVL = binds
C092 (antibody, V domains shown) VH: QVQLVQSGAEVKKPGSSVKVSCKASGGSFTNHFISWVRQAPGQGLEWMGRIIPILGTANYAQNFQGRVMMTADKSTSTAYMELSSLRSEDTAVYYCARDSGYSGYGSTYYMDVWGKGTTVTVSS VL: QSVLTQPPSVSGAPGQRVTISCTGSNSNIGAGYDVHWYQQLPGAAPKLLIYGNNNRPSGVPDRFSGSKSDTSASLAITGLQVEDEADYYCQSYDSSLSDSVFGSGTKVTVL = binds
ZL525 (antibody, V domains shown) V domain 1: QVQLVQSGAEVKKPGSSMKVSCQASGGTFSSHPISWIRQAPGQGLEWMGRIIPIAGMTDYGQKFQGRITITADTSTSTSYVELRGLRSQDTAFYYCAKDVGYSDYGSAYYFHTWGQGTLITVSS V domain 2: QSVLTQPPSVSGAPGQRVTISCTGSNSNIGAGYDVHWYQQLPGTAPKLLIYRNNKRPSGVPDRFSGSKSDTSASLAITGLQAEDEAHYYCQSFDSSLGGSLFGGGTKLAVL = binds
